Target: rat CB1 receptors (Rattus norvegicus)
Construct: cerebella from male Wistar rats (250-300g) were carefully dissected on ice and homogenates were prepared; from tissue; host or cells: rat cerebellum (male Wistar) membrane homogenate
Sequence (P20272 whole entry): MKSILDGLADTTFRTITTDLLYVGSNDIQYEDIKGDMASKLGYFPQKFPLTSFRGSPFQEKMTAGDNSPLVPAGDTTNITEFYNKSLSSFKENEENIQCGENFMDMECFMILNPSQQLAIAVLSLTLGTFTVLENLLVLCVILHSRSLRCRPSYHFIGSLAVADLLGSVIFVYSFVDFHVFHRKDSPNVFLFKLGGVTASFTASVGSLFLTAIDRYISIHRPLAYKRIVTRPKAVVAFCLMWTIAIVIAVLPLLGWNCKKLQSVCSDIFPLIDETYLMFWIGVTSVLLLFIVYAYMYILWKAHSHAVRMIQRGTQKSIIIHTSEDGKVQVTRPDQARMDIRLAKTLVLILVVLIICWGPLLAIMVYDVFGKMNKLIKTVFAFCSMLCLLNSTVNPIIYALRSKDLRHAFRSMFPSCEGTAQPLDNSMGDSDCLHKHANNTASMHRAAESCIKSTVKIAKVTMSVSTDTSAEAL
Assay: Affinity for rat CB1 receptors: competitive binding of [3H]-CP 55,940 to rat cerebellum membranes
Details: 1 nM [3H]-CP 55,940, rat cerebellum membranes, 1 hour at 30°C; read-out: IC50
Parameter measured: IC50 (nM)
Give the quantity in nM, number only.

What value of measured IC50 is listed for O=C(NN1CCCCC1)C1=NN(c2ccc(Cl)cc2Cl)C(c2ccc(Cl)cc2)C1 (stereo not shown) [Subgroup A1, Chemical example 1] ?
26
